Test: GST conjugation of t-stilbene oxide with glutathione (HPLC)
Format: biochemical
Settings: purified enzyme, 0.4 mM electrophilic substrate, 4 mM glutathione, 0.1 M MOPS pH 7.0
Answer each item with its documented activity of enzyme with t-Stilbene Oxide.

>>> observed_result("bms1.pk0023.g8: maize class I GST enzyme encoded by cDNA clone, expressed in E. coli (protein) MAPPMKVYGWAVSPWMARALVCLEEAGADYEIVPMSRCGGDHRRPEHLAKNPFGEIPVLEDGDLTLYQSRAIARYVLRKLKPELLREGDLEGSAMVDAWMEVEAHHMEPALWPIIRHSIIGQYVGRERDHQAVIDENLDRLRKVLPAYEARLSVCKYLVGDDISAADLCHFGFMRYFMATEYAGLVDAYPHVKAWWDALLARPSVQKVMAGMPPDFGYASGNIP")
"0.00 nmol/min/mg"

Shifting focus to the molecule that follows.
[ask] Supply activity of enzyme with t-Stilbene Oxide value. Item: m.15.5.d06.sk20: maize class II GST enzyme encoded by cDNA clone, expressed in E. coli (protein) MAEVEATVGRLMLYSYWRSSCSHRARIALNLKGVDYEYKAVNLLKGEQSDPEFVKLNPMKFVPALVDGSSVIGDSYAITLYLEDKYPEPPLLPQDLQKKALNHQIASIVASGIQPLHNLTVLRFIDQKVGAGESVLWTQQQIERGFTAIENLIQLKGCAGKYATGDEVQLADVFLAPQIYAAIERTKIDMSNYLTLARLHSEYMSHPAFEAALPGKQPDAPSSS
[reply] 0.00 nmol/min/mg
